# System: Rattus norvegicus
# run-description: Inhibition of LPS induced TNF-alpha production in po dosed Sprague-Dawley rat administered 30 mins before LPS challenge measured after 90 mins by ELISA
# Assay type: functional
experimental-readout: ED50 (mg/kg)
Unit mg/kg implied. Number only.

line_notation=O=C(O)CCCSCCN1C(=O)OC[C@@H]1/C=C/[C@@H](O)Cc1cccc(C(F)(F)F)c1 assay_value=3
line_notation=CCc1cccc(C[C@H](O)/C=C/[C@H]2CSC(=O)N2CCSCCCC(=O)O)c1 assay_value=1
line_notation=COCc1cccc(C[C@H](O)/C=C/[C@H]2CCC(=S)N2CCCCCCC(=O)O)c1 assay_value=3
line_notation=O=C(O)CCCSCCN1C(=O)SC[C@@H]1/C=C/[C@@H](O)Cc1ccccc1 assay_value=1

Could you now look at the following compound, please?
Any idea what its ED50 is? The compound is Cc1cccc(C[C@H](O)/C=C/[C@H]2CCC(=S)N2CCSCCCC(=O)O)c1
1

====

# test-system: Prostaglandin E2 receptor EP4 subtype (Rattus norvegicus)
# Sequence (P43114 whole entry): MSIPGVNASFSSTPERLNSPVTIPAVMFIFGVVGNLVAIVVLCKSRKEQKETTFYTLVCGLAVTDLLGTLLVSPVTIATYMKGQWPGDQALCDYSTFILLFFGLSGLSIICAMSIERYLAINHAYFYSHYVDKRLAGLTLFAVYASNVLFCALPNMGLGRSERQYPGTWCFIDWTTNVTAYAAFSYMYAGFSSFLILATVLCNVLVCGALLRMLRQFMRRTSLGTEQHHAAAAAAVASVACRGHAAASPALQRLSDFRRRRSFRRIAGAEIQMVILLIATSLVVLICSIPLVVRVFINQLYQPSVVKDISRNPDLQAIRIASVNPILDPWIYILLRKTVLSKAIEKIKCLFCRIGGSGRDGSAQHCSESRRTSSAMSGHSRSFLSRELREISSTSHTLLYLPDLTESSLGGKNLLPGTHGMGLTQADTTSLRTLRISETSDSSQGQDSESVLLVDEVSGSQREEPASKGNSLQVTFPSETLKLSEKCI
# run-description: Agonist activity at rat EP4 receptor expressed in CHO cells assessed as cAMP production after 10 mins by radioimmunoassay
experimental-readout: EC50 (nM)
Write the answer as a number in nM, unit excluded.

line_notation=CCc1cccc(C[C@H](O)/C=C/[C@H]2CCC(=S)N2CCCCCCC(=O)O)c1 test_system="Prostaglandin E2 receptor EP4 subtype (Rattus norvegicus)" unit_of_measure=nM assay_value=9.4
line_notation=O=C(O)CCCSCCN1C(=O)SC[C@@H]1/C=C/[C@@H](O)Cc1ccccc1 test_system="Prostaglandin E2 receptor EP4 subtype (Rattus norvegicus)" unit_of_measure=nM assay_value=4.8
line_notation=O=C(O)CCCCCCN1C(=S)CC[C@@H]1/C=C/[C@@H](O)Cc1cccc(F)c1 test_system="Prostaglandin E2 receptor EP4 subtype (Rattus norvegicus)" unit_of_measure=nM assay_value=26
line_notation=COCc1cccc(C[C@H](O)/C=C/[C@H]2CCC(=O)N2CCSCCCC(=O)O)c1 test_system="Prostaglandin E2 receptor EP4 subtype (Rattus norvegicus)" unit_of_measure=nM assay_value=1.3
line_notation=O=C(O)CCCSCCN1C(=O)OC[C@@H]1/C=C/[C@@H](O)Cc1cccc(F)c1 test_system="Prostaglandin E2 receptor EP4 subtype (Rattus norvegicus)" unit_of_measure=nM assay_value=35
line_notation=COCc1cccc(C[C@H](O)/C=C/[C@H]2[C@H](O)CC(=O)[C@@H]2CCSCCCC(=O)O)c1 test_system="Prostaglandin E2 receptor EP4 subtype (Rattus norvegicus)" unit_of_measure=nM assay_value=1.4

Record request: EC50 value, item CCc1cccc(C[C@H](O)/C=C/[C@H]2CSC(=O)N2CCSCCCC(=O)O)c1
1.9

Ok, now Cc1cccc(C[C@H](O)/C=C/[C@H]2CCC(=S)N2CCSCCCC(=O)O)c1
7.7

Proceed to O=C(O)CCCSCCN1C(=O)OC[C@@H]1/C=C/[C@@H](O)Cc1cccc(Cl)c1
23

// query: O=C(O)CCCSCCN1C(=O)OC[C@@H]1/C=C/[C@@H](O)Cc1ccccc1
36

Check COCc1cccc(C[C@H](O)/C=C/[C@H]2CCC(=S)N2CCCCCCC(=O)O)c1 too.
7.3

Subsequent entry: O=C(O)CCCCCCN1C(=S)CC[C@@H]1/C=C/[C@@H](O)Cc1ccccc1
29

And the next one, Cc1cccc(C[C@H](O)/C=C/[C@H]2COC(=O)N2CCSCCCC(=O)O)c1 ?
33
